Assay: Cmax in CD rat at 5 mg/kg
Assay type: ADME, organism-based
Parameters: dose 5 mg/kg
Settings: in vivo
quantityKind: Cmax

                                   compound  valuereported
0  Cl.NC1C[C@H]2CC[C@@H](C1)N2C(=O)[C@H](Cc1ccc(Br)cc1)NC(=O)C1(c2ccc(OC(F)(F)F)cc2)CC1 (stereo partly specified)         300 nM

====

Assay: Oral bioavailability in CD rat at 5 mg/Kg
Format: ADME, organism-based
Details: in vivo
quantityKind: bioavailability (%)

In [3]: df
Out[3]:
                                   compound  unitname  valuereported
0  Cl.NC1C[C@H]2CC[C@@H](C1)N2C(=O)[C@H](Cc1ccc(Br)cc1)NC(=O)C1(c2ccc(OC(F)(F)F)cc2)CC1 (stereo partly specified)         %           88.1

====

Experiment: Tmax in CD rat at 5 mg/kg
Format: ADME, organism-based
Parameters: dose 5 mg/kg
Details: in vivo
quantityKind: Tmax (h)

>>> print(df.to_string())
                                   compound  unitname  valuereported
0  Cl.NC1C[C@H]2CC[C@@H](C1)N2C(=O)[C@H](Cc1ccc(Br)cc1)NC(=O)C1(c2ccc(OC(F)(F)F)cc2)CC1 (stereo partly specified)         h              8

====

Assay: Volume of distribution at steady state in CD rat at 5 mg/Kg
Type: ADME, organism-based
Conditions: in vivo, read-out: Vdss
quantityKind: Vd

                                   molecule  valuereported
0  Cl.NC1C[C@H]2CC[C@@H](C1)N2C(=O)[C@H](Cc1ccc(Br)cc1)NC(=O)C1(c2ccc(OC(F)(F)F)cc2)CC1 (stereo partly specified)      19.3 L/kg

====

Experiment: Plasma concentration in mouse at 100 mg/kg, po after 4 hrs
Assay type: ADME, organism-based
Set-up: dose 100 mg/kg, route oral
# reported concentration at 4 h; entries follow
quantityKind: concentration at 4 h (µM)

>>> df
                      structuresmilesstring  unitname  valuereported
0  CN1CCN(C(=O)[C@H](Cc2ccc(Cl)cc2Cl)NC(=O)C2(c3ccc(Cl)cc3Cl)CC2)CC1        µM            5.8
1  CN1CCN(C(=O)[C@H](Cc2c[nH]c3ccccc23)NC(=O)C2(c3ccc(Cl)cc3Cl)CC2)CC1        µM            0.7

====

Experiment: Metabolic stability in mouse liver microsome assessed as compound conversion at 15 uM after 30 mins
Format: ADME
Settings: liver microsomes, read-out: Drug metabolism
So basically: is metabolised at 0.5 h, 15 µM under 30%? Then TRUE. Not under? Then FALSE.

>>> print(df.to_string())
                                   compound  classname
0  CN1CCN(C(=O)[C@H](COCc2ccccc2)NC(=O)C2(c3ccc(Cl)cc3Cl)CC2)CC1      FALSE
1  O=C([C@H](Cc1ccc(Cl)cc1Cl)NC(=O)C1(c2ccc(Cl)cc2Cl)CC1)N1CCNCC1       TRUE
2  CN(C)CCN(C)C(=O)[C@H](Cc1ccc(Br)cc1)NC(=O)C1(c2ccc(Cl)cc2Cl)CC1      FALSE
3  NC1C[C@H]2CC[C@@H](C1)N2C(=O)[C@H](Cc1ccc(Br)cc1)NC(=O)C1(c2ccc(OC(F)(F)F)cc2)CC1 (stereo not given in full)       TRUE
4  CN(C)CCN(C)C(=O)[C@H](Cc1ccc(Cl)cc1Cl)NC(=O)C1(c2ccc(Cl)cc2Cl)CC1      FALSE
5  CN1CCN(C(=O)[C@H](Cc2ccc(Cl)cc2)NC(=O)C2(c3ccc(Cl)cc3Cl)CC2)CC1      FALSE
6  NC1C[C@H]2CC[C@@H](C1)N2C(=O)[C@H](Cc1ccc(Br)cc1)NC(=O)C1(c2ccc(Cl)cc2Cl)CC1 (stereo not given in full)       TRUE
7  CN1CCN(C(=O)[C@H](Cc2ccc(Cl)cc2Cl)NC(=O)C2(c3ccc(Cl)cc3Cl)CC2)CC1      FALSE
8  NC1C[C@H]2CC[C@@H](C1)N2C(=O)[C@H](Cc1ccc(Cl)cc1Cl)NC(=O)C1(c2ccc(OC(F)(F)F)cc2)CC1 (stereo not given in full)       TRUE

# credit: ChEMBL document CHEMBL2163189
